# tested_target: T1, human NPY2 receptor (human, UniProt P49146 1-381)
# T1 sequence (looked up): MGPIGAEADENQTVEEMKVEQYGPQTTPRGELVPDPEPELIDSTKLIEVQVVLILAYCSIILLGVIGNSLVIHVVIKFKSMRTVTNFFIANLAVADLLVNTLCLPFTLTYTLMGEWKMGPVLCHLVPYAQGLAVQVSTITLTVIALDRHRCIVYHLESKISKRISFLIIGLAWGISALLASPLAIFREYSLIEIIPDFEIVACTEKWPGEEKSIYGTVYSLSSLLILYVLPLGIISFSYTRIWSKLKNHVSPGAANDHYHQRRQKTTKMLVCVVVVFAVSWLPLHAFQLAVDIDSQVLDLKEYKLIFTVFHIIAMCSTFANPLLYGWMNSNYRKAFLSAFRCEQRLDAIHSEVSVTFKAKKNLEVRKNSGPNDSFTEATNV
# method_notes: cell-based or functional assay
Starred links: 1 amine or outer side, 2 acyl side, 3 side chain; linkers in the order of their positions; H or OH if unused. Non-standard residues stand in square brackets, D forms with d. Primed or numbered codes have the meaning given here. *: point of attachment. Pqa = 4-oxo-6-(1-piperazinyl)-3(4H)-quinazoline-acetic acid, O=C(Cn1cnc2ccc(N3CCN([*:1])CC3)cc2c1=O)[*:2]; Adamantane1carbonyl = O=C(C12CC3CC(CC(C3)C1)C2)*; Phe(3,4-Cl2) = N[C@@H](Cc1ccc(Cl)c(Cl)c1)C(=O)O; Phe(F5) = N[C@@H](Cc1c(F)c(F)c(F)c(F)c1F)C(=O)O; PEG30,000 SSA″ = PEG-CH2CH2NHCOCH2CH2CO-; Phe(3-F) = N[C@@H](Cc1cccc(F)c1)C(=O)O; NMeR = CN[C@@H](CCCNC(=N)N)C(=O)O
recorded_endpoint: Y2R EC50 (nM) FLIPR
Answer with a number only, understood to be in nM.

{"binder": "H-IK[Pqa]RHYLNLVTRQ[NMeR]F-NH2 [H-Ile-Lys-Pqa-Arg-His-Tyr-Leu-Asn-Leu-Val-Thr-Arg-Gln-(NMe)Arg-Phe-NH2]", "units_label": "nM", "meas_value": 1.54}
{"binder": "H-IK[Pqa]RHYLNLVTRQ[NMeR][Phe(3,4-Cl2)]-NH2 [H-Ile-Lys-Pqa-Arg-His-Tyr-Leu-Asn-Leu-Val-Thr-Arg-Gln-(NMe)Arg-3,4-dichloro-Phe-NH2]", "units_label": "nM", "meas_value": 4.03}
{"binder": "H-IK[Pqa]RHYLNLVTRQ[NMeR][Phe(F5)]-NH2 [H-Ile-Lys-Pqa-Arg-His-Tyr-Leu-Asn-Leu-Val-Thr-Arg-Gln-(NMe)Arg-2,3,4,5,6 Pentafluoro-Phe-NH2]", "units_label": "nM", "meas_value": 11.9}
{"binder": "IKXRHYLNLVTRQRX (Pqa as third residue; (NMe)Arg as penultimate residue; Cha (Cyclohexyl Alanine) as C-terminal residue; C-terminal amide (NH2)) [H-Ile-Lys-Pqa-Arg-His-Tyr-Leu-Asn-Leu-Val-Thr-Arg-Gln-(NMe)Arg-Cha-NH2]", "units_label": "nM", "meas_value": 0.498}
{"binder": "H-IK[Pqa]RHYLNLVTRQ[NMeR][Phe(3-F)]-NH2 [H-Ile-Lys-Pqa-Arg-His-Tyr-Leu-Asn-Leu-Val-Thr-Arg-Gln-(NMe)Arg-3Fluoro-Phe-NH2]", "units_label": "nM", "meas_value": 0.635}
{"binder": "Ac-IK(PEG30,000 SSA″)[Pqa]RHYLNWVTRQ[NMeR]Y-NH2", "units_label": "nM", "meas_value": 1080}

stdin: # lookup: Y2R EC50 (nM) FLIPR of Adamantane1carbonyl-IK[Pqa]RHYLNWVTRQ[NMeR]Y-NH2 [Adamantoyl-Ile-Lys-Pqa-Arg-His-Tyr-Leu-Asn-Trp-Val-Thr-Arg-Gln-(NMe)Arg-Tyr-NH2]
stdout: 2.33

Data credit: patent US7642244
